R3 Selectivity values, listed per item
# experimental_system: PACAP-R3 (Homo sapiens)
# Sequence (P41587 24-438): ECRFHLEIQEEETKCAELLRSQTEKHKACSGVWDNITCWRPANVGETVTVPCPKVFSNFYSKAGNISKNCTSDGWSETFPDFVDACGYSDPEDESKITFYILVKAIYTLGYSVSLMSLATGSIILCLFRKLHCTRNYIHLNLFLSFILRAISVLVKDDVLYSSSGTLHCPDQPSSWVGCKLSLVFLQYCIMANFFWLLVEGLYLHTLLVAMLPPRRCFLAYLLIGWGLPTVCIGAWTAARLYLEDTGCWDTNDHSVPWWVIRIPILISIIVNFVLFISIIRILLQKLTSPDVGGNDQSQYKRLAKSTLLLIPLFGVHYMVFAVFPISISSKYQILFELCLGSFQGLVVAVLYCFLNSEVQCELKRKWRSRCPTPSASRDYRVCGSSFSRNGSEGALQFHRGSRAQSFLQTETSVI
# assay: Cyclic AMP SPA on CHO cells expressing PACAP R3
# Format: cell-based
# Set-up: expressed in transfected cells; host or cells: CHO cells (Geneticin selection)
# condition_notes: ratio of EC50 at R2 versus EC50 at R3
No end group written: not given here.

{"substance": "HSDAVFTDNYTRLRKQMAAKKYLNSIKNKN [Peptide R3P164]", "comparison_sign": "=", "R3 Selectivity": 300}
{"substance": "HSDGIFTDSYSRYRKQMAVKKYLAAVKKYLAAVRHG-NH2 [Peptide R3P17]", "comparison_sign": "=", "R3 Selectivity": 2}
{"substance": "H-HSDAVFTDNYTRLRKQMAAKKYLNSIDNKR [Peptide R3P118]", "comparison_sign": "=", "R3 Selectivity": 30}
{"substance": "HSDAVFTDNYTRLRKQLAAKKYLNDIKKGG [Peptide R3P31]", "comparison_sign": ">", "R3 Selectivity": 300}
{"substance": "HSDGIFTDSYSRYRKQMAVKKYLSAVRHGQT-NH2 [Peptide R3P15]", "comparison_sign": "=", "R3 Selectivity": 2}
